Below: a set of entries, each annotated with reported kon.
Biological target: T1, human LTBP3-proTGFβ1 complex (human, UniProt Q9NS15 44-1303; P01137 30-390, limits assumed)
T1 construct: Exemplary entries; also called Hu LTBP3-proTGFβ1; huLTBP3 proTGFb1
T1 sequence (Q9NS15 44-1303 limits assumed, chain 1 of 2): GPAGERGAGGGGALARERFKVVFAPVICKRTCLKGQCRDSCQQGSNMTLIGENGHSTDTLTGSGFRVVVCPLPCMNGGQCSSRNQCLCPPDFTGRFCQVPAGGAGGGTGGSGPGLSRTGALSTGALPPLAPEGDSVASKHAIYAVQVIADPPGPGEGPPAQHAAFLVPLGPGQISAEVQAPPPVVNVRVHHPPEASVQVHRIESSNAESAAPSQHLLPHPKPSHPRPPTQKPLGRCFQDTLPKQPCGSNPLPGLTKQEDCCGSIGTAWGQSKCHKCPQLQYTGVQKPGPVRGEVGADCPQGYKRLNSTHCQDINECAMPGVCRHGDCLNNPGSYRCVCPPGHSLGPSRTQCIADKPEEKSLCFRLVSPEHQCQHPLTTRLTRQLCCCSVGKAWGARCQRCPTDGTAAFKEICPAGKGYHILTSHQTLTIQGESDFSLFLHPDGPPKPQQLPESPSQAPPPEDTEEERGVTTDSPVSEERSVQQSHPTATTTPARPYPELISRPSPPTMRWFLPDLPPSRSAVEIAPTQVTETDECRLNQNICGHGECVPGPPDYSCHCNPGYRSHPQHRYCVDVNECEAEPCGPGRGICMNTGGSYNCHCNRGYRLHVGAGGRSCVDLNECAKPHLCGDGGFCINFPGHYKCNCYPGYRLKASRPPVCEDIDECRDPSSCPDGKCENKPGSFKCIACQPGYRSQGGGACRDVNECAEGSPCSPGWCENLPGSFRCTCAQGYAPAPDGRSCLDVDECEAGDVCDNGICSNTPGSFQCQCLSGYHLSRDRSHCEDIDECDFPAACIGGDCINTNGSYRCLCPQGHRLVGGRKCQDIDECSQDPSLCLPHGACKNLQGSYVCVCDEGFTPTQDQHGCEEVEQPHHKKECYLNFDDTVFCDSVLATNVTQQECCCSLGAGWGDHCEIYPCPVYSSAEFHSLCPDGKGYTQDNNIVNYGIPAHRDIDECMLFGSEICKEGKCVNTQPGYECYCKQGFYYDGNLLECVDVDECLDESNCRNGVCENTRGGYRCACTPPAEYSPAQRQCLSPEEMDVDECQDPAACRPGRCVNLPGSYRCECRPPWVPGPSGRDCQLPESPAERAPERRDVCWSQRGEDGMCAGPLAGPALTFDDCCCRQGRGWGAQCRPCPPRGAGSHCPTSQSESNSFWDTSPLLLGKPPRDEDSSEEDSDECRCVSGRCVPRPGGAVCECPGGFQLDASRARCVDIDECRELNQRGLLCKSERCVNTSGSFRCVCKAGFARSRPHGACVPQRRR
T1 sequence (P01137 30-390 limits assumed, chain 2 of 2): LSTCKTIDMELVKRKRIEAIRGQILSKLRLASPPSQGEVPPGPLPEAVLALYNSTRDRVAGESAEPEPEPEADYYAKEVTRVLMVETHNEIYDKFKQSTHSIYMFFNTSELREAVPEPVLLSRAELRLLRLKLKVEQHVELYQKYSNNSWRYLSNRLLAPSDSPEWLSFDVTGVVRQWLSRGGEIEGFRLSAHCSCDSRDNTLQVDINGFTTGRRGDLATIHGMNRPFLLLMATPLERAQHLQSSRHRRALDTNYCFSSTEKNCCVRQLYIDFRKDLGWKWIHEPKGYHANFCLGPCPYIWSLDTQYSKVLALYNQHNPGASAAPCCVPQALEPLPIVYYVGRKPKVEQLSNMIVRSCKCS
Test: Octet BLI, IgG captured
ASSAY_METRIC: kon (M⁻¹ s⁻¹)

* SR-AB34 (antibody, IgG1, V domains shown, Cycle 3, lineage SR-AB22) VH: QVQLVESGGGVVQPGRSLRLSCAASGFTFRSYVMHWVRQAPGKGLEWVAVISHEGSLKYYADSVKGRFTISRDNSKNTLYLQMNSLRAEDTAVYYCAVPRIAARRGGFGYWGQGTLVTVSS VL: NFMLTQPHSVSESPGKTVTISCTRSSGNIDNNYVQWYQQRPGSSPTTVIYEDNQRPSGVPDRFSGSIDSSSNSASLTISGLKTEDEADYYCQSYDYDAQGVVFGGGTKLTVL | 372000
* SR-AB64 (antibody, IgG1, V domains shown, Cycle 3, lineage SR-AB26) VH: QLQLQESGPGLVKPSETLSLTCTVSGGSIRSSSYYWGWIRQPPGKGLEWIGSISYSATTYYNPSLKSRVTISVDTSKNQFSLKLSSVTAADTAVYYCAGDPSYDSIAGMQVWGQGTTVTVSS VL: DIQMTQSPSSLSASVGDRVTITCRASQSISYYLNWYQQKPGKAPKLLIYSASSRQSGVPSRFSGSGSGTDFTLTISSLQPEDFATYYCQQGFDFPLTFGGGTKVEIK | 195000
